# Measured on: wild-type HIV-1 protease (Human immunodeficiency virus type 1 group M subtype B)
# Assay explanation: Assay for inhibition of microbial expressed HIV protease
# Assay type: biochemical
Structures can show the parent of a compound that is named as a salt.
Result type: IC50 (nM)
Answers are plain numbers, in nM.

{"Compound": "CC(C)CCN([C@H](CO)CCC[C@@H](NC(=O)[C@@H](N)C(c1ccc(F)cc1)c1ccc(F)cc1)C1CC1)S(=O)(=O)c1ccc([C@H](C)O)cc1 [Example J18, hydrochloride]", "IC50 [nM]": 0.01}
{"Compound": "CC[C@@H](CCC[C@@H](CO)N(CC(C)C)S(=O)(=O)c1ccc(CO)cc1)NC(=O)[C@@H](NC)C(c1ccccc1)c1ccccc1 [Example J24, hydrochloride]", "IC50 [nM]": 0.055}

Please look at the following compound next.
[Q] Reported IC50 for CC(C)N([C@H](CO)CCCC(C)(C)NC(=O)[C@@H](N)Cc1ccccc1Cl)S(=O)(=O)c1ccc(N)cc1 [Example L10, hydrochloride] : what is it?
[A] 3.2
